Recorded ECmax (−fold induction over basal) by entry
Biological target: GPR39 (Homo sapiens)
Sequence (O43194 1-453): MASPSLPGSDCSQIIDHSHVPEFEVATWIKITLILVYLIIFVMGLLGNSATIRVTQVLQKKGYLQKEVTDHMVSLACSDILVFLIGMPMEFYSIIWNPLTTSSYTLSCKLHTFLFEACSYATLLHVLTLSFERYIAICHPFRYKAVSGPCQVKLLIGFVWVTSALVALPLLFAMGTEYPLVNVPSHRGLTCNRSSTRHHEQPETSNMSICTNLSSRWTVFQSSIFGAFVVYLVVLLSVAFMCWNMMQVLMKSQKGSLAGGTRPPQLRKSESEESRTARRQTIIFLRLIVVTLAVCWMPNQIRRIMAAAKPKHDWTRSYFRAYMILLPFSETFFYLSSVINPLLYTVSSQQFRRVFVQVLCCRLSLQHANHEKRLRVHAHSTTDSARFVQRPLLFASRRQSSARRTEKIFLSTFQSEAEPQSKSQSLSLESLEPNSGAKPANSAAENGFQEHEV
Assay: luciferase assay system (SRE luciferase reporter gene, CV-1 cells expressing GPR39)
Format: cell-based
Design: expressed in transfected cells; host or cells: CV-1 fibroblast cell line (Korea Cell Line Bank), adenoviral transduction at 50 MOI
Square brackets hold non-standard residues; d marks the D form. Peptide text beside a SMILES is read from it. * marks the point of attachment. His(Trt) = N[C@@H](Cc1cn(C(c2ccccc2)(c2ccccc2)c2ccccc2)cn1)C(=O)O; dHis(Trt) = N[C@H](Cc1cn(C(c2ccccc2)(c2ccccc2)c2ccccc2)cn1)C(=O)O; His(τ-CHPh2) = N[C@@H](Cc1cn(C(c2ccccc2)c2ccccc2)cn1)C(=O)O; Biotin = O=C1N[C@H]2[C@H](CS[C@H]2CCCCC(=O)*)N1; dPhe(4-Cl) = N[C@H](Cc1ccc(Cl)cc1)C(=O)O; Phe(4-Me) = Cc1ccc(C[C@H](N)C(=O)O)cc1; Palmitoyl = CCCCCCCCCCCCCCCC(=O)*; Decanoyl = CCCCCCCCCC(=O)*; Octanoyl = CCCCCCCC(=O)*

Molecule	Uom	ECmax (−fold induction over basal)
CCCCCCCC(=O)NCCCC[C@H](NC(=O)[C@@H](N)Cc1cn(C(c2ccccc2)c2ccc(F)cc2F)cn1)C(=O)N[C@H](Cc1ccc(C)cc1)C(=O)N[C@@H](Cc1ccc(O)cc1)C(=O)O (some centres unmarked)	fold induction over basal	21.5
CCCCCCCC(=O)NCCCC[C@H](NC(=O)[C@H](N)Cc1cn(C(c2ccccc2)(c2ccccc2)c2ccccc2)cn1)C(=O)N[C@@H](Cc1ccccc1)C(=O)N[C@@H](Cc1ccc(O)cc1)C(=O)O [HKFY-4] (H-[dHis(Trt)]K(Octanoyl)FY-OH)	fold induction over basal	16.8
CCCCCCCC(=O)NCCCC[C@H](NC(=O)[C@@H](N)Cc1cn(C(c2ccccc2)(c2ccccc2)c2ccccc2)cn1)C(=O)N[C@H](Cc1ccc(Cl)cc1)C(=O)N[C@H](Cc1ccc(O)cc1)C(=O)O [HKFY-15] (H-[His(Trt)]K(Octanoyl)[dPhe(4-Cl)][dY]-OH)	fold induction over basal	24.7
CCCCCCCCCC(=O)NCCCC[C@H](NC(=O)[C@@H](N)Cc1cn(C(c2ccccc2)(c2ccccc2)c2ccccc2)cn1)C(=O)N[C@@H](Cc1ccccc1)C(=O)N[C@@H](Cc1ccc(O)cc1)C(=O)O [HKFY-24] (H-[His(Trt)]K(Decanoyl)FY-OH)	fold induction over basal	7.03
CCCCCCCCCCCCCCCC(=O)NCCCC[C@H](NC(=O)[C@@H](N)Cc1cn(C(c2ccccc2)(c2ccccc2)c2ccccc2)cn1)C(=O)N[C@@H](Cc1ccccc1)C(=O)N[C@@H](Cc1ccc(O)cc1)C(=O)O [HKFY-27] (H-[His(Trt)]K(Palmitoyl)FY-OH)	fold induction over basal	20.4
CCCCCCCC(=O)NCCCC[C@H](N)C(=O)N[C@@H](Cc1ccccc1)C(=O)N[C@@H](Cc1ccc(O)cc1)C(=O)O [HKFY-54] (H-Lys(Octanoyl)-Phe-Tyr-OH)	fold induction over basal	7.8
CCCCCCCC(=O)NCCCC[C@H](NC(=O)[C@H](Cc1cn(C(c2ccccc2)c2ccccc2)cn1)NC(=O)CCCC[C@@H]1SC[C@@H]2NC(=O)N[C@@H]21)C(=O)N[C@@H](Cc1ccc(C)cc1)C(=O)N[C@@H](Cc1ccc(O)cc1)C(=O)O [HKFY-72] (Biotin-[His(τ-CHPh2)]K(Octanoyl)[Phe(4-Me)]Y-OH)	fold induction over basal	10.4
CCCCCCCC(=O)NCCCC[C@H](NC(=O)[C@@H](N)Cc1cn(Cc2ccc(-c3ccccc3-c3nnn[nH]3)cc2)cn1)C(=O)N[C@H](Cc1ccc(C)cc1)C(=O)N[C@@H](Cc1ccc(O)cc1)C(=O)O	fold induction over basal	11.6

###

Target: GPR39 (Homo sapiens, UniProt O43194)
Test: luciferase assay system (SRE luciferase reporter gene, CV-1 cells expressing GPR39)
Type: cell-based
Design: expressed in transfected cells; host or cells: CV-1 fibroblast cell line (Korea Cell Line Bank), adenoviral transduction at 50 MOI
Square brackets hold non-standard residues; d marks the D form. Peptide text beside a SMILES is read from it. * marks the point of attachment. His(Trt) = N[C@@H](Cc1cn(C(c2ccccc2)(c2ccccc2)c2ccccc2)cn1)C(=O)O; Biotin = O=C1N[C@H]2[C@H](CS[C@H]2CCCCC(=O)*)N1; Octanoyl = CCCCCCCC(=O)*
Recorded ECmax (−fold induction over basal) by entry

Compound	ECmax (−fold induction over basal)
CCCCCCCC(=O)NCCCC[C@H](NC(=O)[C@@H](N)Cc1cn(C(c2ccccc2)(c2ccccc2)c2ccccc2)cn1)C(=O)N[C@@H](Cc1ccccc1)C(=O)N[C@@H](Cc1c[nH]c2ccccc12)C(=O)O [HKFY-46] (H-[His(Trt)]K(Octanoyl)FW-OH)	20
CCCCCCCC(=O)NCCCC[C@H](NC(=O)[C@H](Cc1cn(C(c2ccccc2)(c2ccccc2)c2ccccc2)cn1)NC(=O)CCCC[C@@H]1SC[C@@H]2NC(=O)N[C@@H]21)C(=O)N[C@@H](Cc1ccccc1)C(=O)N[C@@H](Cc1ccc(O)cc1)C(=O)O [HKFY-2] (Biotin-[His(Trt)]K(Octanoyl)FY-OH)	15
